- measured-on: Human Cav1.2/β3/α2δ-1 Calcium Channel Membranes (α2δ-1 subunit) (Homo sapiens (Human), UniProt P54289)
- Sequence (P54289 25-956): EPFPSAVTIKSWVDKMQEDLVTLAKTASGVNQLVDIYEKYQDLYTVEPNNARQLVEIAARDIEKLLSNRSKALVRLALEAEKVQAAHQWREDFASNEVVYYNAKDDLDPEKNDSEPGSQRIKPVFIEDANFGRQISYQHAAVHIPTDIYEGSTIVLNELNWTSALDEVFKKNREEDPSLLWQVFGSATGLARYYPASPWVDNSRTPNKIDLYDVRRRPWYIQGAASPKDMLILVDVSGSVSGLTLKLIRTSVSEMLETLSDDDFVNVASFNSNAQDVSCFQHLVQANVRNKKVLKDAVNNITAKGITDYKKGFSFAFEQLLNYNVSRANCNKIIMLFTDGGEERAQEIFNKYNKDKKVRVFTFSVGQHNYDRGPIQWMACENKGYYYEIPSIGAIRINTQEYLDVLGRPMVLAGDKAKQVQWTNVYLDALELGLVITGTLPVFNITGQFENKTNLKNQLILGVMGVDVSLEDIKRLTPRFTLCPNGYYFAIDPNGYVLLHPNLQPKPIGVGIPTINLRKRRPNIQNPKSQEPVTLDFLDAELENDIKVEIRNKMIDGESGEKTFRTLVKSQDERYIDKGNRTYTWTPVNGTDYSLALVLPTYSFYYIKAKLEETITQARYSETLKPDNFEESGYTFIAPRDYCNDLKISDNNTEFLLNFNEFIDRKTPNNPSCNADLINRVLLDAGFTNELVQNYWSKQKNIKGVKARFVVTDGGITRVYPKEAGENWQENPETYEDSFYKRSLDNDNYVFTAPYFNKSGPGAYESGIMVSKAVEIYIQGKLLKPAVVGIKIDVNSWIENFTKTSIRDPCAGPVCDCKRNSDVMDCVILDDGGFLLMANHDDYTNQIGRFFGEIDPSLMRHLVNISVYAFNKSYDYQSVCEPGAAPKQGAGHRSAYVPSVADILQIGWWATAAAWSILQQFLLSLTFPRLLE
- Sequence (P54289 957-1103): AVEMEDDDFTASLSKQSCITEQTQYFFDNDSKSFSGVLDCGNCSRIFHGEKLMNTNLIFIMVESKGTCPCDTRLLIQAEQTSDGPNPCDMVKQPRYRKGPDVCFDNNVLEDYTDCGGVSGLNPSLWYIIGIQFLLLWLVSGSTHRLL
- Sequence (Q13936 whole entry partner): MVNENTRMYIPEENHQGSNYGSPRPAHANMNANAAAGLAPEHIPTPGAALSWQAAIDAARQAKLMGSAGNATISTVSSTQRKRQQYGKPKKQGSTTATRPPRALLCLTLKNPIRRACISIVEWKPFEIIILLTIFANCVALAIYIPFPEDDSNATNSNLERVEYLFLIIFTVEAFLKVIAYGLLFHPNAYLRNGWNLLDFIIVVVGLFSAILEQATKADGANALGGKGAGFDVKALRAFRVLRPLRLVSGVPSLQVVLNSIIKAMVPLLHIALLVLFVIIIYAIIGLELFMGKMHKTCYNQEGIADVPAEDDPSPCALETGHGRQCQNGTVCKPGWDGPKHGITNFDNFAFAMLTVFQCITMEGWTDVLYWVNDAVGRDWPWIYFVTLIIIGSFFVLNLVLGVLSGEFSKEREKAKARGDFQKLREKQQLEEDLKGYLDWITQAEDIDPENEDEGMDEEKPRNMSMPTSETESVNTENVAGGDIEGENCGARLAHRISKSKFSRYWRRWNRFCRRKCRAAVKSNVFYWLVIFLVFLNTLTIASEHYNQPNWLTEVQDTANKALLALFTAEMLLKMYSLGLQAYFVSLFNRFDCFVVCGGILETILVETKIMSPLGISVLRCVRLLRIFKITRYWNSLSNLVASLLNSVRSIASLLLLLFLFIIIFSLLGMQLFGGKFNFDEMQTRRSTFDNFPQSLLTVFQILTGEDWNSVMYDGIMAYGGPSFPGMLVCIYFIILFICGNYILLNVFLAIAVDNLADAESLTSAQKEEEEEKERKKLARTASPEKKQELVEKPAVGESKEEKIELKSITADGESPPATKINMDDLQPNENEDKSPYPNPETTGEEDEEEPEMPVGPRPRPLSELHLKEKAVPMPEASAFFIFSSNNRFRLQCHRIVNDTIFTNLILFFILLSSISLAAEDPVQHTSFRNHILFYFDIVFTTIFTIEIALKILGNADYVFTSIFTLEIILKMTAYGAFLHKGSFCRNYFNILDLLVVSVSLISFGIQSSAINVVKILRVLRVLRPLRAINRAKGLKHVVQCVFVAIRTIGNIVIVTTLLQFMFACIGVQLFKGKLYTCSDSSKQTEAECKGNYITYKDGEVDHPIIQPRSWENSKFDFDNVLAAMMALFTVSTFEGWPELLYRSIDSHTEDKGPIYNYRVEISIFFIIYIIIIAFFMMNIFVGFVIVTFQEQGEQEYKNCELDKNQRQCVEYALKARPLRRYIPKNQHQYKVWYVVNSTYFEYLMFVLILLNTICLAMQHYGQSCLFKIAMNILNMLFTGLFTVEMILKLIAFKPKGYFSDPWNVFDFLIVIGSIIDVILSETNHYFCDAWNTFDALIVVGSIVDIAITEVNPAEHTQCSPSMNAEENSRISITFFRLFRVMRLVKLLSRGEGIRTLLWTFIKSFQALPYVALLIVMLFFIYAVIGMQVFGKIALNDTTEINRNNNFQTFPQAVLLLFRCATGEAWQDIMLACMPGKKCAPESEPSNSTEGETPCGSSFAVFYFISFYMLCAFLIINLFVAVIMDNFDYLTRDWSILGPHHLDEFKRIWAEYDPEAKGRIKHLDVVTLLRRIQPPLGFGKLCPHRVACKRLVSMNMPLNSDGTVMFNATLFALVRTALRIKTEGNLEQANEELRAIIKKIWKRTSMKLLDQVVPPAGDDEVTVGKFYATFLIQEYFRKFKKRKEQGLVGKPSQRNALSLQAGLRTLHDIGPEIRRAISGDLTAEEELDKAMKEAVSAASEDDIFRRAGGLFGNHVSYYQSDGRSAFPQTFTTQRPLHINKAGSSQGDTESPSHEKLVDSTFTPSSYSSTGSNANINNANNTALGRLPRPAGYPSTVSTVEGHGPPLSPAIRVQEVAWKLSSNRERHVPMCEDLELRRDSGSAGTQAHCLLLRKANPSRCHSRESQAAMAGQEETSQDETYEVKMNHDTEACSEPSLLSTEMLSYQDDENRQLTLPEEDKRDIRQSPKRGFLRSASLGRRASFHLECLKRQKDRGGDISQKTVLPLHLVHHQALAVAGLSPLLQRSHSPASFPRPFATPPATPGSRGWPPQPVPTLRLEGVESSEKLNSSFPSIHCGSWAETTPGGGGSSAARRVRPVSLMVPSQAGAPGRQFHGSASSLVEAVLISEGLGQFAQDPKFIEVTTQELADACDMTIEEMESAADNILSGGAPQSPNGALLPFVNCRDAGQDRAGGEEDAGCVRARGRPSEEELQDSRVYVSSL
- Sequence (P54284 whole entry partner): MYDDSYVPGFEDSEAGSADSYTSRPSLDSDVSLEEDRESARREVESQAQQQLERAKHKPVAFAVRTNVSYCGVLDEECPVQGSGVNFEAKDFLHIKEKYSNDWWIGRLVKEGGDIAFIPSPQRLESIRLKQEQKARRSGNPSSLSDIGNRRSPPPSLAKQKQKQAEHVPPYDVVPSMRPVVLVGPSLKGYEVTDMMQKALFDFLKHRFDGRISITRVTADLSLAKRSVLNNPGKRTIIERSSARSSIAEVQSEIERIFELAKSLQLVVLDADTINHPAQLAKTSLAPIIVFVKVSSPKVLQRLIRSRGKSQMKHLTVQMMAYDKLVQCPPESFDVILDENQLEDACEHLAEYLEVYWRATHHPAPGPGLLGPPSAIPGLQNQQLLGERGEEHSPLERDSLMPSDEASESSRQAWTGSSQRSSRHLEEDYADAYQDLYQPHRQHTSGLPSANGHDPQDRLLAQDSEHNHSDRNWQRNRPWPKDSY
- test-method-notes: [3H]gabapentin scintillation proximity binding assay on calcium channel α2δ-1 subunit membranes
- Method: This test was carried out in the following way. Calcium Channel α2δ-1 Subunit Binding Assay Human Cav1.2/β3/α2δ-1 Calcium Channel Membranes (Chantest) were thawed on ice, aliquotted and stored at −80° C. for subsequent use. Membranes were diluted to 200 μg/ml (3 μg/well final assay concentration (FAC)) in assay buffer (10 mM HEPES (Sigma), (pH7.4)). The [^3H]GBP (Perkin Elmer) stock solution was stored at −20° C. [^3H]GBP was diluted to 40 nM (10 nM FAC) in assay buffer. […]
For each record, write down the corresponding IC50.
Just the number please, in nM, no unit attached.

Prompt: Identify IC50 associated with the compound CCC1=CC2C(C1)C[C@@]2(CN)Cc1nn[nH]n1 (single isomer, unassigned) [Formula 2 peak 1 (Chiral)]
Response: 165

Prompt: Identify IC50 associated with the compound CCC1=C[C@@H]2[C@H](C1)C[C@]2(CN)Cc1nc(=O)o[nH]1 (racemic) [Formula 3 (Racemic)]
Response: 19

Prompt: Identify IC50 associated with the compound CCC1=C[C@@H]2[C@H](C1)C[C@]2(CN)Cc1nn[nH]n1 (racemic) [Formula 2 (Racemic)]
Response: 4.2

Prompt: Identify IC50 associated with the compound CCC1=CC2C(C1)C[C@]2(CN)Cc1nn[nH]n1 (single isomer, unassigned) [Formula 2 peak 2 (chiral)]
Response: 2.1

Prompt: Identify IC50 associated with the compound CC(C)CC(CN)CC(=O)O (stereo not drawn) [Pregabalin, reference compound]
Response: 23
